Attribution: ChEMBL document CHEMBL1133913

A collection of molecules and their measured Selectivity ratio
# Experimental system: Adrenergic receptor alpha-1 (Homo sapiens) (UniProt P35348+P25100+P35368)
# Assay protocol: Selectivity ratio of alpha-1 receptor to that of NMDA was determined
# Assay type: protein assay
Observed property: Selectivity ratio

>>> numeric_readout("O=C(Cc1ccc(O)cc1)CN1CCC(Cc2ccccc2)CC1")
27
>>> numeric_readout("Oc1ccc(CC(O)CN2CCC(O)(Cc3ccc(Br)cc3)CC2)cc1 (centres undefined)")
216
>>> numeric_readout("Oc1ccc(CC(O)CN2CCC(Cc3ccccc3)CC2)cc1 (centres undefined)")
80
>>> numeric_readout("Oc1ccc(CC(O)CN2CCC(O)(Cc3ccc(Cl)cc3)CC2)cc1 (centres undefined)")
374
